target under test: TESK1 (human)
experiment: radiometric filter-binding kinase assay
condition summary: compound 1.0 µM
experimental endpoint: residual activity (%)
Dear colleague, please return just the value in %, with no unit written.

>  <molecule>
NC(=O)c1cc(-c2ccnc(NC3CCCCC3)c2)nc(N2CCNCC2)c1

>  <experimental endpoint>
residual activity

>  <uom>
%

>  <endpoint value>
102

$$$$
>  <molecule>
C=CC(=O)N1CCC[C@@H](n2nc(-c3ccc(Oc4ccccc4)cc3)c3c(N)ncnc32)C1

>  <experimental endpoint>
residual activity

>  <uom>
%

>  <endpoint value>
71

$$$$
>  <molecule>
CNC(=O)C1[C@H]2O[C@@](C)([C@@H]1N)n1c3ccccc3c3c4c(c5c6ccccc6n2c5c31)C(=O)NC4 (stereo not given in full)

>  <experimental endpoint>
residual activity

>  <uom>
%

>  <endpoint value>
2

$$$$

**Q:** Give a short answer stating reported residual activity for Cc1cc(NC(=O)c2cccc(NC(=O)/C=C/CN(C)C)c2)ccc1Nc1nccc(-c2cccnc2)n1 .
**A:** 93

**Q:** Give a short answer stating reported residual activity for COc1cc(C(=O)N2CCOCC2)c(F)cc1Nc1ncc(C(F)(F)F)c(NC2CC2)n1 .
**A:** 102

**Q:** Give a short answer stating reported residual activity for Cc1ccc(-c2ccc3c(ccc4sc5c(c43)NC[C@@H](C)NC5=O)n2)cn1 .
**A:** 111

**Q:** Give a short answer stating reported residual activity for O=C(N[C@@H](COc1ccc2[nH]c(=O)[nH]c2c1)c1ccccc1)c1cccn(Cc2ccc(F)c(F)c2)c1=O .
**A:** 88

**Q:** Give a short answer stating reported residual activity for NCC(=O)Nc1ccc(-n2nc(C(F)(F)F)cc2-c2ccc3c(ccc4ccccc43)c2)cc1 .
**A:** 84

**Q:** Give a short answer stating reported residual activity for CCNc1nc(Nc2cc(F)c(C(=O)N3CCOCC3)cc2OC)ncc1C(F)(F)F .
**A:** 104

**Q:** Give a short answer stating reported residual activity for CN(C)C/C=C/C(=O)Nc1cccc(C(=O)Nc2ccc(Nc3nccc(-c4cccnc4)n3)cc2)c1 .
**A:** 98

###

target under test: EPHB2 (human) (UniProt P29323)
Sequence (P29323 whole entry, looked up): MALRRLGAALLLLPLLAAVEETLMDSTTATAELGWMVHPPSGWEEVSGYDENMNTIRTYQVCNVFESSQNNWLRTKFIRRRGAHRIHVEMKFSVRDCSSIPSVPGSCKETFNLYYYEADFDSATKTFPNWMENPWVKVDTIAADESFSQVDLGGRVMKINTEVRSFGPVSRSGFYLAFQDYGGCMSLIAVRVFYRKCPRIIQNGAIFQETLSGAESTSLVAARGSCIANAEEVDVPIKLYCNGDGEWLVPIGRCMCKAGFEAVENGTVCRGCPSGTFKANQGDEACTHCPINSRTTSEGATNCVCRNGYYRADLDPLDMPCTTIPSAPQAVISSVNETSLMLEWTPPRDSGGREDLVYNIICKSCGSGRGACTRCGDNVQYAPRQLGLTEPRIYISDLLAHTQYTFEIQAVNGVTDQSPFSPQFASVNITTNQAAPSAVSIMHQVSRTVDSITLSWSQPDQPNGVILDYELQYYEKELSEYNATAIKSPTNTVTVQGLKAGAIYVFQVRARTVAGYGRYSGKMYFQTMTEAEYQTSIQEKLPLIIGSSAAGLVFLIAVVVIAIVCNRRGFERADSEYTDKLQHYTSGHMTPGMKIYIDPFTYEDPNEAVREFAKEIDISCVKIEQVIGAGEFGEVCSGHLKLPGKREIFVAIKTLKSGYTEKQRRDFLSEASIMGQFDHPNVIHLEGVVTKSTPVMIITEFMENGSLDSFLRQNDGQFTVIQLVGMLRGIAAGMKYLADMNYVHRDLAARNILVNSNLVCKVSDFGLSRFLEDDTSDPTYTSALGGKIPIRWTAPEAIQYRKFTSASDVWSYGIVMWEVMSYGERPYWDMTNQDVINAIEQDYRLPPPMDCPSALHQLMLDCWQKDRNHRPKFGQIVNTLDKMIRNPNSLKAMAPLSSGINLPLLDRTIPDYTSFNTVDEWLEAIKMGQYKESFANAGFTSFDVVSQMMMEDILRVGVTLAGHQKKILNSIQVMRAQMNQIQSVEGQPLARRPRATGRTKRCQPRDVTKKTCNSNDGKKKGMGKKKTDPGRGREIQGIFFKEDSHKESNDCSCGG
experiment: radiometric filter-binding kinase assay
condition summary: compound 10.0 µM
# key: entry, value: residual activity
Dear colleague, please return just the value in %, with no unit written.

// below: answered compounds
>  <compound>
FC(F)(F)c1ccc(-c2ccc(Oc3cncc4sc(-c5nn[nH]n5)cc34)cc2)cc1

>  <experimental endpoint>
residual activity

>  <endpoint value>
120

$$$$
>  <compound>
COC(=O)/C=C/C(=O)OC

>  <experimental endpoint>
residual activity

>  <endpoint value>
118

$$$$
>  <compound>
O=C(NOC[C@H](O)CO)c1ccc(F)c(F)c1Nc1ccc(I)cc1Cl

>  <experimental endpoint>
residual activity

>  <endpoint value>
74

$$$$

Now, please, on to the next compound.
**Q:** Give a short answer stating reported residual activity for CC(C)C[C@H](NC(=O)CNC(=O)c1cc(Cl)ccc1Cl)B1OC(=O)CC(CC(=O)O)(C(=O)O)O1 (stereo not given in full) .
**A:** 95

###

target under test: CDK9 CCNT1 (human) (UniProt P50750+O60563)
Sequence (O60563 whole entry, looked up): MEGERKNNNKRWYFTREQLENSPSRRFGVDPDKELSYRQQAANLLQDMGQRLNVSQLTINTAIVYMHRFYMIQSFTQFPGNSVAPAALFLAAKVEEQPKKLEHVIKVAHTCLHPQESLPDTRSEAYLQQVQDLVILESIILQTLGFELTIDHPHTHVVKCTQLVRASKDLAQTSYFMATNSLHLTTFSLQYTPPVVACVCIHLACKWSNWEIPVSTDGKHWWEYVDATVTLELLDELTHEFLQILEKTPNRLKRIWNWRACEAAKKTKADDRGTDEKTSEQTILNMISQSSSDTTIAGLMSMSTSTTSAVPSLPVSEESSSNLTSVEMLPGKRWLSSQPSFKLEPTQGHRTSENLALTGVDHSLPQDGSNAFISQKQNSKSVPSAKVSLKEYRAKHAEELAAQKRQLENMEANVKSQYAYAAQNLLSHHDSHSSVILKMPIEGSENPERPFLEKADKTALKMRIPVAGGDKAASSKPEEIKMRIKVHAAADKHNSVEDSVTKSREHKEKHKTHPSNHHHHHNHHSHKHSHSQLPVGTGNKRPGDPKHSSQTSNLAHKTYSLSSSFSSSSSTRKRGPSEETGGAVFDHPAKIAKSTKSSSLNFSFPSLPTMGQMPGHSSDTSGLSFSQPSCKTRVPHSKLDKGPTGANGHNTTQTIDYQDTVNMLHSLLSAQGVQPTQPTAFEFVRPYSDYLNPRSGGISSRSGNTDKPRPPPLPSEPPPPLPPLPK
Sequence (P50750 whole entry, looked up): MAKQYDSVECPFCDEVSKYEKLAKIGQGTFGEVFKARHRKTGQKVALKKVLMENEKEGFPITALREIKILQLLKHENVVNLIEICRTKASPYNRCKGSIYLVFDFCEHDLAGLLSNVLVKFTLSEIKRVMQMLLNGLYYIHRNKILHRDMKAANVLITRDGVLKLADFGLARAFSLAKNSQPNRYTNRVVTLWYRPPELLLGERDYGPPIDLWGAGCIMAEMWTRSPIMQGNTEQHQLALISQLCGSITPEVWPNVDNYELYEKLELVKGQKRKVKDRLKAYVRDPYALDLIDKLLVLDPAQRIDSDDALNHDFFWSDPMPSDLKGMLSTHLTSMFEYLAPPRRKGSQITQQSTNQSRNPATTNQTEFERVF
experiment: radiometric filter-binding kinase assay
condition summary: compound 0.1 µM
experimental endpoint: residual activity (%)
Dear colleague, please return just the value in %, with no unit written.

// below: answered compounds
>  <compound>
Cc1cc(NC(=O)c2cccc(NC(=O)/C=C/CN(C)C)c2)ccc1Nc1nccc(-c2cccnc2)n1

>  <residual activity (%)>
85

$$$$
>  <compound>
CC1=C(CO)C(=O)O[C@@H]([C@@H](C)[C@H]2CC[C@H]3[C@@H]4C[C@H]5O[C@]56[C@@H](O)C=CC(=O)[C@]6(C)C4CC[C@]23C)C1 (some centres undefined)

>  <residual activity (%)>
94

$$$$
>  <compound>
CNC(=O)C1[C@H]2O[C@@](C)([C@@H]1N)n1c3ccccc3c3c4c(c5c6ccccc6n2c5c31)C(=O)NC4 (some centres undefined)

>  <residual activity (%)>
17

$$$$
>  <compound>
COc1cc(O)c2c(c1)[C@H]1OC1C[C@H](O)[C@H](O)C(=O)/C=C\C[C@H](C)OC2=O (some centres undefined)

>  <residual activity (%)>
117

$$$$
>  <compound>
CN1CCN(CCOc2cc(OC3CCOCC3)c3c(Nc4c(Cl)ccc5c4OCO5)ncnc3c2)CC1

>  <residual activity (%)>
100

$$$$
>  <compound>
Cc1ccc(-c2ccc3c(ccc4sc5c(c43)NC[C@@H](C)NC5=O)n2)cn1

>  <residual activity (%)>
109

$$$$
>  <compound>
CN(C)C/C=C/C(=O)Nc1cccc(C(=O)Nc2ccc(Nc3nccc(-c4cccnc4)n3)cc2)c1

>  <residual activity (%)>
22

$$$$
>  <compound>
COc1ccc(N(C(=O)Nc2c(C)cccc2C)c2cc(Nc3ccc(N4CCN(C)CC4)cc3)ncn2)c(OC)c1

>  <residual activity (%)>
87

$$$$

Now, please, on to the next compound.
**Q:** Give a short answer stating reported residual activity for CCn1c(-c2nonc2N)nc2cncc(CNC3CCNCC3)c21 .
**A:** 103

###

# key: entry, value: residual activity
target under test: TAOK1 (human) (UniProt Q7L7X3)
Sequence (Q7L7X3 whole entry, looked up): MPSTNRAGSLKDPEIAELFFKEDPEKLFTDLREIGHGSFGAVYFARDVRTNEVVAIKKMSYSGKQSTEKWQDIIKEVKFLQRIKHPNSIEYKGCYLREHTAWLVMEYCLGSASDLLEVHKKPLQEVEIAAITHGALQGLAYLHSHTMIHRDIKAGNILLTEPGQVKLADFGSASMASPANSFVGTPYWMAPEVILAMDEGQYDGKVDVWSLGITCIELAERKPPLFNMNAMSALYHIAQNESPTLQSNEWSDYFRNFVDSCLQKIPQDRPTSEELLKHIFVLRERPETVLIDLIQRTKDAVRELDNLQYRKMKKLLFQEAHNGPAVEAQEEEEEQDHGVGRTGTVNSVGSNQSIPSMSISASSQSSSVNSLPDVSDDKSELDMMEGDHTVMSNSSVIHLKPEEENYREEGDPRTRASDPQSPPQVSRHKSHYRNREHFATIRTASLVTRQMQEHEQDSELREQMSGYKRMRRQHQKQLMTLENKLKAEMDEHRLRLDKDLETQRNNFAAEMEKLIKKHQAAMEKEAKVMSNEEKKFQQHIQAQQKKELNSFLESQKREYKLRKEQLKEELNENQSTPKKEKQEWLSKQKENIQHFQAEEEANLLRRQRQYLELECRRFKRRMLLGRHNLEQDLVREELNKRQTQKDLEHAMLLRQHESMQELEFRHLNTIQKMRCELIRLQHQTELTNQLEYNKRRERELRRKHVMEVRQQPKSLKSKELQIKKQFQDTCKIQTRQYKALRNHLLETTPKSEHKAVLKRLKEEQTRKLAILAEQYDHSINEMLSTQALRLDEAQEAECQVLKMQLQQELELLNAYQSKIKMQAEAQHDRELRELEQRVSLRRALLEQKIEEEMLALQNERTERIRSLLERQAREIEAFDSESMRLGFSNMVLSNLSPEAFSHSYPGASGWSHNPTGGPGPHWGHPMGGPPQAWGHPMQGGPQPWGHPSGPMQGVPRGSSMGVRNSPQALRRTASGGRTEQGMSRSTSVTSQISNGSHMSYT
experiment: radiometric filter-binding kinase assay
condition summary: compound 0.1 µM
Dear colleague, please return just the value in %, with no unit written.

// below: answered compounds
>  <compound>
Cc1cc(NC(=O)c2cccc(NC(=O)/C=C/CN(C)C)c2)ccc1Nc1nccc(-c2cccnc2)n1

>  <target under test>
TAOK1 (human) (UniProt Q7L7X3)

>  <experimental endpoint>
residual activity

>  <endpoint value>
124

$$$$
>  <compound>
COc1ccc(N(C(=O)Nc2c(C)cccc2C)c2cc(Nc3ccc(N4CCN(C)CC4)cc3)ncn2)c(OC)c1

>  <target under test>
TAOK1 (human) (UniProt Q7L7X3)

>  <experimental endpoint>
residual activity

>  <endpoint value>
69

$$$$
>  <compound>
CCCCCc1ccc(/C=C/[C@H](O)[C@@H](CO)NC)cc1

>  <target under test>
TAOK1 (human) (UniProt Q7L7X3)

>  <experimental endpoint>
residual activity

>  <endpoint value>
102

$$$$

**Q:** Give a short answer stating reported residual activity for CC1=C(CO)C(=O)O[C@@H]([C@@H](C)[C@H]2CC[C@H]3[C@@H]4C[C@H]5O[C@]56[C@@H](O)C=CC(=O)[C@]6(C)C4CC[C@]23C)C1 (some centres undefined) .
**A:** 103

###

target under test: MKNK2 (human)
experiment: radiometric filter-binding kinase assay
condition summary: compound 1.0 µM
# key: entry, value: residual activity
Dear colleague, please return just the value in %, with no unit written.

>  <compound>
CNC(=O)C1[C@H]2O[C@@](C)([C@@H]1N)n1c3ccccc3c3c4c(c5c6ccccc6n2c5c31)C(=O)NC4 (stereo not given in full)

>  <target under test>
MKNK2 (human)

>  <experimental endpoint>
residual activity

>  <uom>
%

>  <endpoint value>
10

$$$$
>  <compound>
Oc1ccc2ccccc2c1SSc1c(O)ccc2ccccc12

>  <target under test>
MKNK2 (human)

>  <experimental endpoint>
residual activity

>  <uom>
%

>  <endpoint value>
97

$$$$
>  <compound>
Cc1cccc(Nc2nn(C)c3ncnc(N)c23)c1

>  <target under test>
MKNK2 (human)

>  <experimental endpoint>
residual activity

>  <uom>
%

>  <endpoint value>
103

$$$$
>  <compound>
COc1ccc2c(c1)c1c3c(c4c5ccccc5n(C)c4c1n2CC(O)CN(C)C)C(=O)NC3=O (stereo not given)

>  <target under test>
MKNK2 (human)

>  <experimental endpoint>
residual activity

>  <uom>
%

>  <endpoint value>
88

$$$$

**Q:** Please report the measured residual activity for O=C(NOCC(O)CO)c1ccc(F)c(F)c1Nc1ccc(I)cc1Cl (stereo not given) tested on MKNK2 (human).
**A:** 89

**Q:** Please report the measured residual activity for NC(=O)Nc1ccc2c(c1)/C(=C/c1cc(-c3cccnc3)c[nH]1)C(=O)N2 tested on MKNK2 (human).
**A:** 46

**Q:** Please report the measured residual activity for Cc1cccc(-c2nn(C(=S)Nc3ccccc3)cc2-c2ccnc3ccccc23)n1 tested on MKNK2 (human).
**A:** 91

**Q:** Please report the measured residual activity for COc1ccc(-n2ncc3cnc(Nc4cc(OC)c(OC)c(OCCCN5CCN(C)CC5)c4)nc32)cc1 tested on MKNK2 (human).
**A:** 17

**Q:** Please report the measured residual activity for CCCCCc1ccc(/C=C/[C@H](O)[C@@H](CO)NC)cc1 tested on MKNK2 (human).
**A:** 98

**Q:** Please report the measured residual activity for C[C@H]1CCCC(=O)CCC/C=C/c2cc(O)cc(O)c2C(=O)O1 tested on MKNK2 (human).
**A:** 64

**Q:** Please report the measured residual activity for Cn1nc(Nc2ccc(F)cc2)c2c(N)ncnc21 tested on MKNK2 (human).
**A:** 104

**Q:** Please report the measured residual activity for NC(=O)c1cc2c(-c3cccc(-c4ccccc4)c3)cnc(N)c2s1 tested on MKNK2 (human).
**A:** 91

**Q:** Please report the measured residual activity for Cc1ccc(Sc2cnc(Nc3cccc(Br)n3)s2)cc1C(=O)N1CCN(C(=O)CN)CC1 tested on MKNK2 (human).
**A:** 92

**Q:** Please report the measured residual activity for C=C1C(=O)OC2C1CC/C(C)=C/CCC1(C)OC21 (stereo not given) tested on MKNK2 (human).
**A:** 113

The values you see were collected from the kinase profiling compilation of Christmann-Franck et al. (2016).
